Tested on: A2780
Experiment: Cellular proliferation assay (Alamar blue), A2780
Format: cell-based
Settings: Homo sapiens, A2780, A2780 cells; 10% FCS; 72 h with compound; Alamar blue 24 h; read-out: pIC50 A2780 (converted)
outcome_measure: IC50 (µM)

Look over these answered cases.
[
  {
    "compound_structure_string": "CN1CCCN(C)C(=O)COc2cc(ccc2OCCSc2nccn2C)Nc2ncnc3[nH]cc(c23)C1",
    "target_system": "A2780",
    "IC50 / µM": 1.26
  },
  {
    "compound_structure_string": "CCOCCCOc1ccc2cc1OCC(=O)N(C)CCCN(C)Cc1c[nH]c3ncnc(c13)N2",
    "target_system": "A2780",
    "IC50 / µM": 0.501
  },
  {
    "compound_structure_string": "CN1CCCN(C)C(=O)COc2cc(ccc2OCC(=O)NC2CC2)Nc2ncnc3[nH]cc(c23)C1",
    "target_system": "A2780",
    "IC50 / µM": 1.26
  }
]

A = CN1CCCN(C)C(=O)COc2cc(ccc2OCCN2CCOCC2)Nc2ncnc3[nH]cc(c23)C1
B = CN1CCCN(C)C(=O)COc2cc(ccc2OCCNc2ccc(Cl)cc2)Nc2ncnc3[nH]cc(c23)C1
Query: Lab note: record which item had the higher IC50, A or B . Could you answer with the label of the item you picked?
Reply: A
(A: 2 µM, B: 0.2 µM)
